- studySystem: GlunN1/GluN2A glutamate receptors (Homo sapiens, UniProt Q05586+Q12879)
- Sequence (Q12879 23-1464, other chains not shown): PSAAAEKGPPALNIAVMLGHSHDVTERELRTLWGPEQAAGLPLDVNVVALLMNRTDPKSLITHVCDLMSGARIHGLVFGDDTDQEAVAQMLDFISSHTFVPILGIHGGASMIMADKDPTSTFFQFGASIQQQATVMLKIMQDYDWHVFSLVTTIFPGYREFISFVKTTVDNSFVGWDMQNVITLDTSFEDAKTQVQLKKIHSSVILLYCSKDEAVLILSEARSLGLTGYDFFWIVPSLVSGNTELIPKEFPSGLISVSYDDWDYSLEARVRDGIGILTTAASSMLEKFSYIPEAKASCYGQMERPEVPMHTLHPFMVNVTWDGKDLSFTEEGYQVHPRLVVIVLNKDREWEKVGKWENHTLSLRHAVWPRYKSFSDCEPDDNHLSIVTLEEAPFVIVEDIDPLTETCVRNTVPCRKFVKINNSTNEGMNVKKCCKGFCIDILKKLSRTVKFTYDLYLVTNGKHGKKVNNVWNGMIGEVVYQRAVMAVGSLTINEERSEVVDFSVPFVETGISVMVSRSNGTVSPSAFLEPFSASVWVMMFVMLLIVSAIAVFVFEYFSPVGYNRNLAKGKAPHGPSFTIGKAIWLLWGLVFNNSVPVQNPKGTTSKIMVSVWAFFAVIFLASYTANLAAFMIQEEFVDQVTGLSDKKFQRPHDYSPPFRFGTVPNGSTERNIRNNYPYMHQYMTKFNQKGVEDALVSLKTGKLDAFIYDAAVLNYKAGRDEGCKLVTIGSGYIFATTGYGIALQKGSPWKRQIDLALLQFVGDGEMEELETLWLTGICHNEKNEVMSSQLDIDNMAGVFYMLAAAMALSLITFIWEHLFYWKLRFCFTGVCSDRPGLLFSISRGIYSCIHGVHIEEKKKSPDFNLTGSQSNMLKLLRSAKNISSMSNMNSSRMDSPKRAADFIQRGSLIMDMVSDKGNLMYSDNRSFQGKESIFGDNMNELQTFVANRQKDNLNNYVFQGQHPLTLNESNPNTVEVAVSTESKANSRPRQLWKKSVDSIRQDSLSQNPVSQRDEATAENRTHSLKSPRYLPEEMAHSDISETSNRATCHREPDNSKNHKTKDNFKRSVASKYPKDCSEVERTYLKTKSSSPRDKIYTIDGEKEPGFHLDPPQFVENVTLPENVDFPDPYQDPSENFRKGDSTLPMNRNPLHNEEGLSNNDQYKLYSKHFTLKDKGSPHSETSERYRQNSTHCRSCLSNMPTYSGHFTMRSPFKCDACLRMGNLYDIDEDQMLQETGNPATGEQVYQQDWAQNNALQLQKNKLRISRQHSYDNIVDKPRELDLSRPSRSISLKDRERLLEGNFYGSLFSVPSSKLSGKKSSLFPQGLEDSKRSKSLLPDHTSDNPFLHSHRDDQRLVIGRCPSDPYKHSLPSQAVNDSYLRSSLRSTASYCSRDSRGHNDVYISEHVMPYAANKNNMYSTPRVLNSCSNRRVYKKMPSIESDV
- assayExplanation: Whole-cell patch clamp of mammalian cells (Ionworks Barracuda, IWB), NMDA potentiation (PAM), GluN2A
- conditionContext: peak current amplitude; 8-point concentration-response; read-out: GluN2A PCA EC50
pEC50: −log10 of the molar value.
pEC50 values, listed per item
propertyMeasured: pEC50

[[record]]
molecule = "CC[C@]1(O)CC[C@@]2(C)C(=CC[C@H]3[C@@H]4CC[C@H]([C@H](C)CC[C@H](O)C(C)(C)C)[C@@]4(C)CC(=O)[C@@H]32)C1 [Compound 9]"
result = "7.00 to 9.00"

[[record]]
molecule = "C[C@H](CCC(C)(C)O)[C@H]1CC[C@H]2[C@@H]3CC[C@H]4C[C@@](C)(O)CC[C@]4(C)[C@H]3C(=O)C[C@]12C [Compound 1]"
result = "6.00 to 6.30"

[[record]]
molecule = "CC[C@]1(O)CC[C@@]2(C)C(=CC[C@H]3[C@@H]4CC[C@H]([C@H](C)CC[C@@H](O)C(C)(C)C)[C@@]4(C)CC(=O)[C@@H]32)C1 [Compound 10]"
result = "7.00 to 9.00"

[[record]]
molecule = "C[C@H](CCC(C)(C)O)[C@H]1CC[C@H]2[C@@H]3CC[C@H]4C[C@@H](O)CC[C@]4(C)[C@H]3C(=O)C[C@]12C [Compound 2]"
result = "5.00 to 6.00"

[[record]]
molecule = "CC[C@]1(O)CC[C@@]2(C)C(=CC[C@H]3[C@@H]4CC[C@H]([C@H](C)CC[C@@H](O)C(C)C)[C@@]4(C)CC(=O)[C@@H]32)C1 [Compound 6]"
result = "7.00 to 9.00"

[[record]]
molecule = "C[C@H](CCC(C)(C)O)[C@H]1CC[C@H]2[C@@H]3CC=C4C[C@@](C)(O)CC[C@]4(C)[C@H]3C(C)(O)C[C@]12C (stereo partly drawn) [Compound 11]"
result = "6.00 to 6.30"

